The entries below are paired with their reported selectivity ratio.
- assayExplanation: in vitro
- measurementContext: human, TZM-bl cells
- Description: Selectivity index, ratio of CC50 for human TZM-bl cells to EC50 for HIV1 NL4-3 infected in human TZM-bl cells
property: selectivity ratio

molecularString	property	reported
COc1ccc(N(C)C(=O)[C@H](Cc2ccccc2)NC(=O)Cn2cc(-c3cccc(NC(=O)c4ccccc4F)c3)nn2)cc1	selectivity ratio	> 1.22
COc1ccc(N(C)C(=O)[C@H](Cc2ccccc2)NC(=O)Cn2cc(-c3ccccc3NC(=O)c3ccccc3)nn2)cc1	selectivity ratio	> 4.54
COc1ccc(N(C)C(=O)[C@H](Cc2ccccc2)NC(=O)Cn2cc(-c3ccc(NC(=O)c4ccc(C#N)cc4)cc3)nn2)cc1	selectivity ratio	> 1.32
COc1ccc(N(C)C(=O)[C@H](Cc2ccccc2)NC(=O)Cn2cc(-c3ccc(NC(=O)c4ccc(F)cc4)cc3)nn2)cc1	selectivity ratio	> 1.27
COc1ccc(N(C)C(=O)[C@H](Cc2ccccc2)NC(=O)Cn2cc(-c3cccc(N)c3)nn2)cc1	selectivity ratio	> 6.25
COc1ccc(N(C)C(=O)[C@H](Cc2ccccc2)NC(=O)Cn2cc(-c3ccc(NC(=O)c4ccccc4)cc3)nn2)cc1	selectivity ratio	> 1.32
COc1ccc(N(C)C(=O)[C@H](Cc2ccccc2)NC(=O)Cn2cc(-c3ccccc3NC(=O)c3ccccc3OC)nn2)cc1	selectivity ratio	> 1.92

###

- Test system: TZM
- assayExplanation: Cytotoxicity against in human TZM-bl cells assessed as reduction in cell viability measured after 2 days by CytoTox-Glo cytotoxicity assay
- measurementContext: 48 h
property: CC50

molecularString	reported
COC(=O)c1ccc(C(=O)Nc2ccc(-c3cn(CC(=O)N[C@@H](Cc4ccccc4)C(=O)N(C)c4ccc(OC)cc4)nn3)cc2)cc1	> 15.5 µM
COc1ccc(N(C)C(=O)[C@H](Cc2ccccc2)NC(=O)Cn2cc(-c3cccc(NC(=O)c4ccc(F)cc4)c3)nn2)cc1	> 16.5 µM
COc1ccc(C(=O)Nc2cccc(-c3cn(CC(=O)N[C@@H](Cc4ccccc4)C(=O)N(C)c4ccc(OC)cc4)nn3)c2)cc1	> 16.2 µM
COc1ccc(N(C)C(=O)[C@H](Cc2ccccc2)NC(=O)Cn2cc(-c3ccc(NC(=O)c4cccc(F)c4)cc3)nn2)cc1	> 16.5 µM

###

- Test system: Human immunodeficiency virus 1
- assayExplanation: Antiviral activity against HIV1 NL4-3 infected in human TZM-bl cells assessed as reduction in virus induced cytopathic effect measured after 2 days by luciferase gene expression assay
- Assay type: functional, organism-based
- measurementContext: Human immunodeficiency virus 1, NL4-3, TZM-bl, 48 h
pEC50: −log10 of the molar value.

molecularString	comparisonSymbol	pEC50
COc1ccc(N(C)C(=O)[C@H](Cc2ccccc2)NC(=O)Cn2cc(-c3ccc(NC(=O)c4cccc(F)c4)cc3)nn2)cc1	=	4.90
COc1ccc(N(C)C(=O)[C@H](Cc2ccccc2)NC(=O)Cn2cc(-c3ccc(NC(=O)c4ccc(C#N)cc4)cc3)nn2)cc1	=	4.91
COC(=O)c1ccc(C(=O)Nc2ccccc2-c2cn(CC(=O)N[C@@H](Cc3ccccc3)C(=O)N(C)c3ccc(OC)cc3)nn2)cc1	<	4.81
COc1ccc(N(C)C(=O)[C@H](Cc2ccccc2)NC(=O)Cn2cc(-c3cccc(NC(=O)c4ccc(C)cc4)c3)nn2)cc1	<	4.78
COc1ccc(C(=O)Nc2ccc(-c3cn(CC(=O)N[C@@H](Cc4ccccc4)C(=O)N(C)c4ccc(OC)cc4)nn3)cc2)cc1	<	4.79
COc1ccc(N(C)C(=O)[C@H](Cc2ccccc2)NC(=O)Cn2cc(-c3ccc(N)cc3)nn2)cc1	=	4.87

###

The entries below are paired with their reported selectivity ratio.
- assayExplanation: in vitro
- measurementContext: human, TZM-bl cells
property: selectivity ratio

molecularString	property	reported
COc1ccc(N(C)C(=O)[C@H](Cc2ccccc2)NC(=O)Cn2cc(-c3ccccc3NC(C)=O)nn2)cc1	selectivity ratio	> 4.76
COc1ccc(N(C)C(=O)[C@H](Cc2ccccc2)NC(=O)Cn2cc(-c3ccc(NC(=O)c4cccc(F)c4)cc3)nn2)cc1	selectivity ratio	> 1.3
COc1ccc(N(C)C(=O)[C@H](Cc2ccccc2)NC(=O)Cn2cc(-c3ccccc3NC(=O)c3ccccc3F)nn2)cc1	selectivity ratio	> 5.27

###

The entries below are paired with their reported CC50.
- Test system: TZM
- assayExplanation: Cytotoxicity against in human TZM-bl cells assessed as reduction in cell viability measured after 2 days by CytoTox-Glo cytotoxicity assay
- measurementContext: 48 h

molecularString	CC50
COc1ccc(N(C)C(=O)[C@H](Cc2ccccc2)NC(=O)Cn2cc(-c3ccc(N)cc3)nn2)cc1	> 20.6 µM
COc1ccc(N(C)C(=O)[C@H](Cc2ccccc2)NC(=O)Cn2cc(-c3cccc(NC(=O)c4cccc(F)c4)c3)nn2)cc1	> 16.5 µM
COc1ccc(N(C)C(=O)[C@H](Cc2ccccc2)NC(=O)Cn2cc(-c3ccc(NC(=O)c4cccc(OC)c4)cc3)nn2)cc1	> 16.2 µM
COc1ccc(N(C)C(=O)[C@H](Cc2ccccc2)NC(=O)Cn2cc(-c3ccccc3NC(=O)c3cccc(F)c3)nn2)cc1	> 16.5 µM
COc1ccc(N(C)C(=O)[C@H](Cc2ccccc2)NC(=O)Cn2cc(-c3cccc(N)c3)nn2)cc1	> 20.6 µM
COc1ccc(N(C)C(=O)[C@H](Cc2ccccc2)NC(=O)Cn2cc(-c3cccc(NC(=O)c4ccc(C)cc4)c3)nn2)cc1	> 16.6 µM
COc1ccc(N(C)C(=O)[C@H](Cc2ccccc2)NC(=O)Cn2cc(-c3cccc(NC(=O)c4cccc(OC)c4)c3)nn2)cc1	> 16.2 µM

###

The entries below are paired with their reported selectivity ratio.
- assayExplanation: in vitro
- measurementContext: human, TZM-bl cells
property: selectivity ratio

molecularString	reported
COc1ccc(N(C)C(=O)[C@H](Cc2ccccc2)NC(=O)Cn2cc(-c3ccccc3NC(=O)c3cccc(F)c3)nn2)cc1	> 4.99
COc1ccc(N(C)C(=O)[C@H](Cc2ccccc2)NC(=O)Cn2cc(-c3ccccc3N)nn2)cc1	> 5.27
COc1ccc(N(C)C(=O)[C@H](Cc2ccccc2)NC(=O)Cn2cc(-c3ccccc3NC(=O)c3ccc(F)cc3)nn2)cc1	> 4.76
COc1ccc(N(C)C(=O)[C@H](Cc2ccccc2)NC(=O)Cn2cc(-c3ccc(NC(=O)c4ccc(-c5ccccc5)cc4)cc3)nn2)cc1	> 1.23
COc1ccc(N(C)C(=O)[C@H](Cc2ccccc2)NC(=O)Cn2cc(-c3ccc(N)cc3)nn2)cc1	> 1.51
COc1ccc(N(C)C(=O)[C@H](Cc2ccccc2)NC(=O)Cn2cc(-c3cccc(NC(=O)c4ccc(C#N)cc4)c3)nn2)cc1	> 1.27
COc1ccc(N(C)C(=O)[C@H](Cc2ccccc2)NC(=O)Cn2cc(-c3cccc(NC(=O)c4cccc(F)c4)c3)nn2)cc1	> 1.72

###

- assayExplanation: in vitro
- measurementContext: human, TZM-bl cells

molecularString	selectivity ratio
COc1ccc(N(C)C(=O)[C@H](Cc2ccccc2)NC(=O)Cn2cc(-c3ccc(NC(=O)c4ccccc4F)cc3)nn2)cc1	> 1.39
COc1ccc(N(C)C(=O)[C@H](Cc2ccccc2)NC(=O)Cn2cc(-c3cccc(NC(C)=O)c3)nn2)cc1	> 1.28
COc1ccc(N(C)C(=O)[C@H](Cc2ccccc2)NC(=O)Cn2cc(-c3cccc(NC(=O)c4ccccc4)c3)nn2)cc1	> 1.33
COc1ccc(N(C)C(=O)[C@H](Cc2ccccc2)NC(=O)Cn2cc(-c3ccccc3NC(=O)c3cccc(OC)c3)nn2)cc1	> 1.27

###

- Test system: Human immunodeficiency virus 1
- assayExplanation: Antiviral activity against HIV1 NL4-3 Env-deficient pseudotype virus infected in human U87/CD4/CCR5 cells assessed by reduction in viral production in late stage measured after 48 hrs by luciferase activity based single-round infection assay
- Type: functional, organism-based
- measurementContext: Human immunodeficiency virus 1, NL4-3, U87/CD4/CCR5, 48 h
pIC50: −log10 of the molar value.

molecularString	system	pIC50
COc1ccc(N(C)C(=O)[C@H](Cc2ccccc2)NC(=O)Cn2cc(-c3ccccc3NC(=O)c3ccccc3F)nn2)cc1	Human immunodeficiency virus 1	6.49
Cc1[nH]c2ccccc2c1CC(=O)N[C@@H](Cc1ccccc1)C(=O)N(C)c1ccccc1	Human immunodeficiency virus 1	6.64

###

- Tested on: Human immunodeficiency virus 1
- assayExplanation: Antiviral activity against HIV1 NL4-3 infected in human TZM-bl cells assessed as reduction in virus induced cytopathic effect measured after 2 days by luciferase gene expression assay
- Format: functional, organism-based
- measurementContext: Human immunodeficiency virus 1, NL4-3, TZM-bl, 48 h
property: EC50

molecularString	system	property	reported
COc1ccc(N(C)C(=O)[C@H](Cc2ccccc2)NC(=O)Cn2cc(-c3ccc(NC(=O)c4cccc(OC)c4)cc3)nn2)cc1	Human immunodeficiency virus 1	EC50	> 16.2 µM
COc1ccc(N(C)C(=O)[C@H](Cc2ccccc2)NC(=O)Cn2cc(-c3cccc(NC(=O)c4ccccc4OC)c3)nn2)cc1	Human immunodeficiency virus 1	EC50	> 16.2 µM
COc1ccc(N(C)C(=O)[C@H](Cc2ccccc2)NC(=O)Cn2cc(-c3cccc(NC(=O)c4cccc(OC)c4)c3)nn2)cc1	Human immunodeficiency virus 1	EC50	> 16.2 µM
COC(=O)c1ccc(C(=O)Nc2ccc(-c3cn(CC(=O)N[C@@H](Cc4ccccc4)C(=O)N(C)c4ccc(OC)cc4)nn3)cc2)cc1	Human immunodeficiency virus 1	EC50	> 15.5 µM
COc1ccc(C(=O)Nc2cccc(-c3cn(CC(=O)N[C@@H](Cc4ccccc4)C(=O)N(C)c4ccc(OC)cc4)nn3)c2)cc1	Human immunodeficiency virus 1	EC50	> 16.2 µM

Numbers sourced from ChEMBL document CHEMBL4765266.
